# System: IL-13
# experiment: Cytokine assay: IL-13 release from PHA-L stimulated human PBMCs
# Format: cell-based
# applied.conditions: Homo sapiens, PBMC, read-out: IL13 IC50
parameter.measured: IC50
Number first, unit second.

Lab note: compound COc1ccc(-c2cncc(C3COB(O)C3)c2)cc1OCCCO (single isomer, unassigned) tested on IL-13; recorded IC50 was 265 nM

The reported IC50 value, IL-13, for CCOc1cc(-c2cncc(C3COB(O)C3)c2)cc(F)c1OC (stereo not shown) reads 167 nM

Field IC50 (IL-13), entry CCCOc1cc(-c2cc(C)cc(C3COB(O)C3)n2)ccc1OC (stereo not shown) : 929 nM

COc1ccc(-c2cccc(C3COB(O)C3)c2)cc1OC1CCCC1 (stereo not shown) tested on IL-13 gave IC50: 587 nM

Fill in: IL-13 IC50 for CCOc1nc(-c2cccc(C3COB(O)C3)c2)ccc1OC (stereo not shown) = 533 nM

Kindly note: IL-13, CCOc1cc(-c2cncc(C3COB(O)C3)n2)ccc1OC (single isomer, unassigned) [Example 24] , IC50 value reported: 163 nM

For the compound CCCOc1cc(-c2cc(C3COB(O)C3)cc(CO)n2)ccc1OC (stereo not shown) [Example 202] , the measured IC50 on IL-13 was 1670 nM
